- assayed-target: his6-Siah1 (aa 81-282) (Homo sapiens)
- Sequence (Q8IUQ4 whole entry, looked up, the tested form may be a part): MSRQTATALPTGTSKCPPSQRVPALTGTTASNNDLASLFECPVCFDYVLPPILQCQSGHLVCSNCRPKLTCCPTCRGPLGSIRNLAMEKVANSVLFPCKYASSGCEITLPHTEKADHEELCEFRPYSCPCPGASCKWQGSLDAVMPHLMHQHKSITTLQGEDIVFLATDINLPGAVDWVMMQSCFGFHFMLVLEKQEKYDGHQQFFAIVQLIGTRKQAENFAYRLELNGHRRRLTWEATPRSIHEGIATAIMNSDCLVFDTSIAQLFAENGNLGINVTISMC
- assay-details: inhibitors of Siah-1 ligand interaction – biochemical, TR-FRET, dose response (AID 2141)
recorded-endpoint: IC50 (µM)

Guide cases for IC50, answers given:
O=C(Nc1ccc(Br)cc1)c1ccc(-n2c(O)c3c(c2O)CC=CC3)cc1: 4.27
CC1(C)OC(C)(C)C(=CNc2ccc(O)cc2)C1=O: 2.93

(a) C[N+]1(CCNC(=O)CN=O)CCCCC1
(b) CCOC(=O)C1(C)CC(=Nc2ccc(O)cc2)C(=O)N1c1ccc(O)cc1 (stereo not given)
(c) CC(C)(C)c1cc(-c2cs/c(=N\c3ccccc3)n2Cc2ccc(C(=O)O)cc2)cc(C(C)(C)C)c1O
Please put the entries in order of rising IC50. Rank the items, then write their labels in that order.
c, b, a
(c: 6.69 µM, b: 50.7 µM, a: 130 µM)

Provenance of the data: BindingDB's records for doi:10.7270/Q2V1236D
